This collection of values is drawn from patent EP3733277B1.

- System: Jurkat cells
- procedure summary: Dose-response of doxorubicin on Jurkat cells cultured on droplet microarrays (DMA) with different surfaces or in microtiter plates; viability by Calcein AM / Propidium Iodide staining
- Assay type: cell-based
- condition label: Homo sapiens, Surface: Microtiter plate
- Description: Jurkat cells were treated with anti-cancer drug doxorubicin on DMAs containing different surfaces and coatings ((1) non-polymer surface with gelatine coating, (2) non-polymer surface without coating, (3) polymer surface with gelatine coating, which is necessary for culturing of cells on polymer, but not on non-polymer surface). […] IC50 values were calculated in Origin software by fitting the dose-response curves shown in (a).
metric: IC50 (nM)
A number alone suffices; assume nM.

I'm curious: which IC50 was measured for COc1cccc2c1C(=O)c1c(O)c3c(c(O)c1C2=O)C[C@@](O)(C(=O)CO)C[C@@H]3O[C@H]1C[C@H](N)[C@H](O)[C@H](C)O1 tested on Jurkat cells?
200
